molecular target: T1, His-tagged PD-L1 ECD protein (ACROBiosystems) (human, UniProt Q9NZQ7 19-238); experiment: SPR, supernatant IgG captured, PD-L1-His analyte
T1 construct: Bought protein; also called PD-L1-His; PD-L1/His; not shown: His tag
T1 sequence (Q9NZQ7 19-238): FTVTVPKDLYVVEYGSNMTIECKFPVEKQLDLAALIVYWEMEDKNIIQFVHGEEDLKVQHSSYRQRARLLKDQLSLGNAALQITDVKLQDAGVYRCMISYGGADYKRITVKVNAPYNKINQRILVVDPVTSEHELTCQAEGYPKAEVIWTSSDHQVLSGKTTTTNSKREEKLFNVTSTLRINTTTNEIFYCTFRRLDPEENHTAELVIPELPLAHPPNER
Value type: kon (M⁻¹ s⁻¹)
Your answer should be a plain number; it is taken to be in M⁻¹ s⁻¹.

Looking for the measured kon of 53C1_chimeric (antibody, human IgG1, kappa, N297A, V domains shown, Human IgG1 with effector-less Fc mutations, human kappa; also called chimeric 53C1F3D4) VH: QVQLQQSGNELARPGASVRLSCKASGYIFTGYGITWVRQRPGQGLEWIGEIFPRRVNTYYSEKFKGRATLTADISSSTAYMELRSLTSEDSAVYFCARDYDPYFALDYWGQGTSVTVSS VL: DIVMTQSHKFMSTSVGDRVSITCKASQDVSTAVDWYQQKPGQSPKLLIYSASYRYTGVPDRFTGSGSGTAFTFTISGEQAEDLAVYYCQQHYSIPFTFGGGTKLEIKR , can you help?
260000

Looking for the measured kon of 29A8_VH-VL.M1 (antibody, human IgG1, kappa, N297A, V domains shown, human IgG1 effector-less Fc, kappa) VH: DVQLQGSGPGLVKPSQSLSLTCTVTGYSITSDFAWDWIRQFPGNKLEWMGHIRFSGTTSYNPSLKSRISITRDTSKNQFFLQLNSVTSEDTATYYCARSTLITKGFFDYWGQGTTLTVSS VL: DIVMTQSHKFMSTSVGGRVSITCRASQDVSPAVAWYQQKPGQSPKLLIYWASTRHTGVPDRFTGSGSGTDFTLTISSVQTEDLALYYCQQHYSTPWTFGGGTKLEIKR , can you help?
530000

Looking for the measured kon of 53C1_VH.M1-VL (antibody, human IgG1, kappa, N297A, V domains shown, Chimeric mutant, VH N57S in the entry; human IgG1 effector-less Fc, kappa) VH: QVQLQQSGNELARPGASVRLSCKASGYIFTGYGITWVRQRPGQGLEWIGEIFPRRVSTYYSEKFKGRATLTADISSSTAYMELRSLTSEDSAVYFCARDYDPYFALDYWGQGTSVTVSS VL: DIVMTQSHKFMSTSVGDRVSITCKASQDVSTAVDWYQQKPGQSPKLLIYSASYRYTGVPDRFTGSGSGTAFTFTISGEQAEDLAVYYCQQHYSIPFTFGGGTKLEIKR , can you help?
240000

These data points were gathered from patent US20220135687A1.
